target: Thromboxane-A synthase (Rattus norvegicus) (UniProt P49430); assay: Inhibitory activity to inhibit Inophore-induced arachidonic acid metabolism (inhibition of TXB2 formation) in rat
Sequence (P49430 whole entry, looked up): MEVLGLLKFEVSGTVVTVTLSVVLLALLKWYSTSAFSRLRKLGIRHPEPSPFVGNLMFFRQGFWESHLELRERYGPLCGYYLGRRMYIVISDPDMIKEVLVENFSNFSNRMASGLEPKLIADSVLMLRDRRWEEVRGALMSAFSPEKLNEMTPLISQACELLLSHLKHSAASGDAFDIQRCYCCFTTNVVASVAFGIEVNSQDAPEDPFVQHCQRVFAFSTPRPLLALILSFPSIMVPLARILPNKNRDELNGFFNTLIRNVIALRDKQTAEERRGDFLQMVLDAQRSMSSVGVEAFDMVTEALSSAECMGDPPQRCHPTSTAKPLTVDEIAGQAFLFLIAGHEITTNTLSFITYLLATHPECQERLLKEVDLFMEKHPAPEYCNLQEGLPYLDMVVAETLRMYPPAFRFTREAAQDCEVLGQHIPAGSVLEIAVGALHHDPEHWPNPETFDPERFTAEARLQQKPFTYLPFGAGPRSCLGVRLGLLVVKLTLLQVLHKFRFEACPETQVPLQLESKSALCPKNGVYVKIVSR
measured.endpoint: IC50 (nM)

a = CCCc1c(OCCCCCOc2cc3c(cc2C(C)=O)CCC(C(=O)O)O3)ccc(C(C)=O)c1O (stereo not drawn)
b = CC(C)c1ccc2c(c1)c(SC(C)(C)C)c(CC(C)(C)C(=O)O)n2Cc1ccc(Cl)cc1
c = COc1ccc2c(c1)c(CC(=O)O)c(C)n2C(=O)c1ccc(Cl)cc1
## Task Descending sort on IC50 required. Order the labels as requested and list them.
## Result a, b, c
(a: 6000 nM, b: 2000 nM, c: 100 nM)
